Values compiled from ChEMBL document CHEMBL4020797.

system: MDA-MB-231; experiment: Antiproliferative activity against human MDA-MB-231 after 72 hrs by MTT assay; type: functional; details: MDA-MB-231, 72 h
Property label: GI50 (µM)
Output spec: scalar in µM, unitless text.

Here's what some known entries look like.
[
  {
    "Molecule smiles": "CCC(=O)Nc1ncc2c(ccc3[nH]ccc32)n1",
    "Property label": "GI50",
    "Obs value": 72.8
  },
  {
    "Molecule smiles": "O=C(Nc1ncc2c(ccc3[nH]ccc32)n1)c1ccc2ccccc2c1",
    "Property label": "GI50",
    "Obs value": 0.2
  }
]

input: Please report the recorded GI50 for CCCC(=O)Nc1ncc2c(ccc3[nH]ccc32)n1 .
output: 3.46

###

test system: MDA-MB-231; test: Antiproliferative activity against human MDA-MB-231 after 72 hrs by MTT assay; type: functional; conditions: MDA-MB-231, 72 h
Property label: GI50

Here's what some known entries look like.
[
  {
    "Molecule smiles": "CC(C)(C)C(=O)Nc1ncc2c(ccc3[nH]ccc32)n1",
    "Obs value": "> 100 µM"
  },
  {
    "Molecule smiles": "CC(=O)Nc1ncc2c(ccc3[nH]ccc32)n1",
    "Obs value": "> 100 µM"
  }
]

With those in mind, consider the next compound.
input: State its GI50 on MDA-MB-231: CC(C)C(=O)Nc1ncc2c(ccc3[nH]ccc32)n1
output: > 100 µM
